All figures here come from ChEMBL document CHEMBL1140201.

- test.target: CAR (NR1I3) ligand-binding domain, wild type (Homo sapiens, UniProt Q14994)
- Sequence (Q14994 whole entry): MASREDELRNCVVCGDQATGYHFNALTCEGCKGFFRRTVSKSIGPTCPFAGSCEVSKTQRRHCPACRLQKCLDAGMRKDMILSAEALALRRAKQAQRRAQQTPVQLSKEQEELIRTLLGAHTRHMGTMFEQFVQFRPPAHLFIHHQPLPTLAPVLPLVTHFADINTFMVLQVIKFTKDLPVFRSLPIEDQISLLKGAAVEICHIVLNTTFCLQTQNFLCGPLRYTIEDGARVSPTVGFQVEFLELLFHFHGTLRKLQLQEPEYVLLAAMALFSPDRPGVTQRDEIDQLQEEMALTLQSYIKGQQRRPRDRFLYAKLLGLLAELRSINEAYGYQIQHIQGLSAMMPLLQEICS
- assay.summary: Activation of human CAR-LBD expressed in human C3A cells at 10 uM after 24 hrs by GAL4-dependent luciferase reporter gene assay relative to control
- Format: cell-based
- experimental.parameters: C3A cells expressing human CAR-LBD, read-out: FC
measured.metric: fold induction at 24 h, 10 µM

Solved cases below.
| compound | test.target | measured.metric | test.result |
| --- | --- | --- | --- |
| O=C1CS[C@H](c2ccncc2)N1Cc1nc2ccccc2[nH]1 | CAR (NR1I3) ligand-binding domain, wild type (Homo sapiens, UniProt Q14994) | fold induction at 24 h, 10 µM | 1.4 |
| CC(C)c1ccc(OP(=O)(Oc2ccc(C(C)C)cc2)Oc2ccc(C(C)C)cc2)cc1 | CAR (NR1I3) ligand-binding domain, wild type (Homo sapiens, UniProt Q14994) | fold induction at 24 h, 10 µM | 2.45 |
| COc1ccc(OC)c(CN2C(=O)CS[C@@H]2c2ccc(F)c(Br)c2)c1 | CAR (NR1I3) ligand-binding domain, wild type (Homo sapiens, UniProt Q14994) | fold induction at 24 h, 10 µM | 3.87 |
| CCCCCNC(=O)Nc1c(C)cccc1C(C)(C)C | CAR (NR1I3) ligand-binding domain, wild type (Homo sapiens, UniProt Q14994) | fold induction at 24 h, 10 µM | 2.6 |
| O=S(=O)(NCCSCc1ccccc1)c1ccc(Cl)cc1 | CAR (NR1I3) ligand-binding domain, wild type (Homo sapiens, UniProt Q14994) | fold induction at 24 h, 10 µM | 1.63 |
| CCN(c1ccccc1)S(=O)(=O)c1ccc(C(C)(C)CC)cc1 | CAR (NR1I3) ligand-binding domain, wild type (Homo sapiens, UniProt Q14994) | fold induction at 24 h, 10 µM | 6.35 |
| O=S(=O)(NCC(c1ccccc1)c1ccccc1)c1cccs1 | CAR (NR1I3) ligand-binding domain, wild type (Homo sapiens, UniProt Q14994) | fold induction at 24 h, 10 µM | 3.28 |
| Cn1ccnc1CN1CCCN(C(=O)Nc2ccc(F)c(F)c2F)CC1 | CAR (NR1I3) ligand-binding domain, wild type (Homo sapiens, UniProt Q14994) | fold induction at 24 h, 10 µM | 2.23 |

P: CCc1ccc(S(=O)(=O)Nc2ccccc2C(C)(C)C)cc1
Q: CCOc1ccccc1N1CCN(Cc2ccc(C)s2)CC1
R: CCOc1ccccc1CCCNC(=O)Nc1c(CC)cccc1CC
S: Cc1ccc(NC(=O)NC2CCC2)cc1C
Prompt: Ordering criterion: fold induction at 24 h, 10 µM; begin with the maximum. Return the labels ranked in the requested order, please.
Completion: P, R, Q, S
